The reported numbers originate from BigSolDB 2.1.

conditions: in dimethyl carbonate, 328.25 K
Reported metric: solubility (mole fraction)
Give a plain numeric answer without units written out.

// query Name the reported solubility (mole fraction) value associated with the molecule `COC(=O)Nc1ccc(C)c(N)c1`
// result 0.0655

---

conditions: in di(2-ethylhexyl) phthalate, 391.85 K
Reported metric: solubility (mole fraction)
Give a plain numeric answer without units written out.

// query Name the reported solubility (mole fraction) value associated with the compound `COC(=O)Nc1ccc(C)c(N)c1`
// result 0.0992

---

settings: in di(2-ethylhexyl) phthalate, 346.95 K
Reported metric: solubility (mole fraction)
Give a plain numeric answer without units written out.

// query Name the reported solubility (mole fraction) value associated with the compound `COC(=O)Nc1ccc(C)c(NC(=O)OC)c1`
// result 0.172
